Experiment Summary: Prolonged piperidine treatment of VKDNYI peptide resin (aspartimide formation, Asp-Asn motif)
Format: physicochemical
Condition Set: VKDNYI; piperidine, 110 Fmoc removal cycles
Could you please report measured D/L-Asu [%] for the items listed next?
Lab book: enter the figure in %, no units written.

# lookup: D/L-Asu [%] of "CCCCC(CCCC)(CCCC)OC(=O)C[C@H](NC(=O)OCC1c2ccccc2-c2ccccc21)C(=O)O"
0.9

# lookup: D/L-Asu [%] of "CCCC(CCC)(CCC)OC(=O)C[C@H](NC(=O)OCC1c2ccccc2-c2ccccc21)C(=O)O"
1.0

# lookup: D/L-Asu [%] of CCC(C)(CC)OC(=O)C[C@H](NC(=O)OCC1c2ccccc2-c2ccccc21)C(=O)O [Mpe, Fmoc-Asp(OMpe)-OH, reference compound]
4.3

# lookup: D/L-Asu [%] of "CCC(CC)(CC)OC(=O)C[C@H](NC(=O)OCC1c2ccccc2-c2ccccc21)C(=O)O"
3.0

# lookup: D/L-Asu [%] of CC(C)(C)OC(=O)C[C@H](NC(=O)OCC1c2ccccc2-c2ccccc21)C(=O)O [tBu, Fmoc-Asp(OtBu)-OH, reference compound]
4.9
